test system: SF-295 CNS; test: NCI tumour cell line growth inhibition, 48 h
Where a SMILES comes first, the peptide text is derived from it. [ ]: non-standard residue; d: D form. β3hI = CC[CH](C)[CH](N)CC(=O)O
property_label: TGI

The following molecules have reported results that may help.
CCOC(=O)c1[nH]c2ccccc2c1C(=O)C[C@H](NC(=O)C(F)(F)F)C(=O)OC; > 100 µM
CCOC(=O)C1=c2[nH]c3cccc4cccc(c43)n2C=C(C(C)=O)C1CC(C)=O (stereo unspecified); > 100 µM
Cc1n[nH]c(=O)n1/N=C/c1c[nH]c2ccccc12; > 100 µM

Prompt line: Find the recorded TGI belonging to `CN(C)CCCc1c[nH]c2ccccc12` and report it.
Response line: > 100 µM

Prompt line: Please look up its TGI: `O=[N+]([O-])c1nccn1COCCF`
Response line: > 100 µM

Prompt line: // query TGI value for entry O=C(OCC1OC(c2nn[nH]n2)C(OC(=O)c2ccccc2)C1OC(=O)c1ccccc1)c1ccccc1 (stereo unspecified)
Response line: > 100 µM

Prompt line: Please look up its TGI: `Cc1ccc(-c2csc(=Nc3c(C)n(C)n(-c4ccccc4)c3=O)n2CCO)cc1`
Response line: > 100 µM

Prompt line: Given the molecule CCC(C)C(CC(=O)N1CCCC1C(=O)NC(C(=O)NC(C(=O)NCC(=O)NC(CC(N)=O)C(=O)NC(C(=O)NC(C(=O)NC(CCCCN)C(N)=O)C(C)CC)C(C)CC)C(C)C)C(C)CC)NC(=O)C(N)C(C)CC (stereo not drawn) (H-I[β3hI]PIVGNIIK-NH2; configuration not given here) , what is its reported TGI?
Response line: > 50 µM

Prompt line: Reported TGI for COC(=O)C1=C(CO)C2C=CC1C2 (stereo unspecified) : what is it?
Response line: > 100 µM

Prompt line: Endpoint output: TGI of `NCCCN1CCN(CC(=O)O)CCN(CCCN)CCN(CC(=O)O)CC1` . Value?
Response line: > 100 µM

Prompt line: Param item = `CCN(CC)C(=O)COc1ccc(Br)cc1Br` ; retrieve measured TGI.
Response line: > 100 µM

----------
test system: K-562 leukemia; test: NCI tumour cell line growth inhibition, 48 h
Listed below: TGI values for each entry.

// known answers, use as guide
COc1ccccc1CNCCCN1C(=O)c2ccc3c4c(ccc(c24)C1=O)C(=O)N(CCCNCCCN)C3=O; 3.76 µM
CCO[C@]12C[C@H](OC)[C@@]3(O)CC(C1[C@H]3O)C13C4C2[C@H](OC)C1[C@](COC)(CN4CC)[C@H](O)C[C@@H]3OC (some centres undefined); > 100 µM
O=[N+]([O-])c1cc(-[n+]2cc([O-])on2)ccc1F; > 100 µM
CCCc1nc2c(C)cc(-c3nc4ccccc4n3C)cc2n1Cc1ccc(-c2ccccc2C(=O)O)cc1; > 100 µM
CN(C)CCNC(=O)c1cccc2[nH]c(-c3ccccc3)nc12; > 100 µM
CC(CO)C1=CC(C#CCOCc2ccccc2)N(C(=O)Oc2ccccc2)c2ccccc21 (centres undefined); > 100 µM

Prompt line: # query: TGI of entry `O=c1[nH]nc(Cc2ccc(Cl)cc2)n1/N=C\CC/C=N\n1c(Cc2ccc(Cl)cc2)n[nH]c1=O`
Response line: > 100 µM

Prompt line: Field request: TGI | item: `O=C(O)c1ccc(C(c2c(O)c3ccccc3oc2=O)c2c(O)c3ccccc3oc2=O)cc1`
Response line: > 100 µM

Prompt line: Which value of TGI has been reported for `Cc1cc(C)c2c(=O)n(CN3CCC(O)(c4ccccc4)CC3)sc2n1` in the records?
Response line: > 100 µM

Prompt line: Tell me the measured TGI of `Cc1ccccc1CN1CC=c2ccccc2=N1` , please.
Response line: > 100 µM

Prompt line: Any idea what TGI was measured for O=C(NC1=NC2C=CC([N+](=O)[O-])=CC2S1)C(=O)Nn1c(=S)[nH]c2ccccc2c1=O (centres undefined) ?
Response line: > 100 µM

Prompt line: Request the reported TGI associated with `CC(C)n1c2c([n+](C)c1/C=C/c1ccccc1)C(=O)c1ccccc1C2=O`
Response line: 9.61 µM

----------
Entries and their measured TGI follow.
tested on: OVCAR-8 ovarian; test: NCI tumour cell line growth inhibition, 48 h

Field: example entries. Status: answers known.
CCCCCCCCCCCCCCCCCCOCC(CO[P+](=O)O)OCCCCCCCCCCCCCCCCCC (stereo not drawn); > 50 µM
Cc1[nH]c(=O)nc(NCCNCCO)c1C(=O)Nc1c2ccccc2nc2ccccc12; > 100 µM

Prompt line: Form: Entry = `FC(F)(Sc1ccccc1)c1nc2ccccc2o1` | System = OVCAR-8 ovarian | TGI = ____
Response line: > 100 µM

----------
tested on: BT-549 breast; assay: NCI tumour cell line growth inhibition, 48 h
property_label: GI50

CC(=O)N=c1ccc2nc3c(cc(N)c4ccccc43)oc-2c1; 2.47 µM
COc1ccc(-c2nc(-c3nc4ccc(OC)cc4[nH]3)cc3c2[nH]c2ccccc23)cc1; 7.1 µM
C=C(C)[C@@H]1CC[C@]2(C)[C@H](CC[C@@H]3[C@H]4[C@H]5OC[C@@]4(CCC5(C)C)CC[C@]32C)[C@@]1(C)CCCN; 1.67 µM
C[C@H]1[C@H](C)CC[C@]2(C(=O)O)CC[C@]3(C)C(=CC[C@@H]4[C@@]5(C)C/C(=C/c6ccco6)C(=O)C(C)(C)[C@@H]5CC[C@]43C)[C@H]12; 4.76 µM

# ---- query molecule ----
Prompt line: GI50 lookup needed for `CSc1nc2sc3cc(Cl)ccc3n2c(=N)c1C#N` , thanks.
Response line: 25.4 µM

----------
system: HCT-15 colon; assay: NCI tumour cell line growth inhibition, 48 h
property_label: TGI

Consider the following illustrative entries.
Cc1ccc(C)c(NC(=O)CC/C(=N\NC(=O)C(N)=O)C(C)C(=O)c2ccc(O)cc2)c1 (stereo not drawn); > 100 µM
COc1cccc(/C=C2\CCCCCC2=O)c1; > 100 µM

Next compound, please.
Prompt line: # lookup: TGI of `Cc1ccc(-c2csc(=Nc3c(C)n(C)n(-c4ccccc4)c3=O)n2CCO)cc1`
Response line: > 100 µM

----------
// values below are reported log10 of TGI
tested on: OVCAR-3 ovarian; assay: NCI tumour cell line growth inhibition, 48 h
Where a SMILES comes first, the peptide text is derived from it. [ ]: non-standard residue; d: D form. The star is where a group is joined. Octanoyl = CCCCCCCC(=O)*; Aib = CC(C)(N)C(=O)O; tBu = CC(C)(C)*
A difference of one corresponds to tenfold TGI; all values are log10 with TGI in µM.

Some compounds with known log10 of TGI results, for comparison:
NS(=O)(=O)c1ccc(N2N=C3c4ccccc4CC3C2c2ccc(Cl)cc2)cc1 (stereo unspecified); 1.54
CCCCCCCC(=O)NC(C)(C)C(=O)NC(COC(C)(C)C)C(=O)NC(CC(C)C)C(=O)NC(C)(C)C(=O)NC(COC(C)(C)C)C(=O)NC(COC(C)(C)C)C(=O)NC(CC(C)C)C(=O)NC(C)(C)C(=O)NC(COC(C)(C)C)C(=O)NC(C(=O)NC(CC(C)C)C(=O)OC)C(C)CC (stereo unspecified) (Octanoyl-[Aib]S(tBu)L[Aib]S(tBu)S(tBu)L[Aib]S(tBu)IL-OMe; configuration not given here); 1.04
NS(=O)(=O)c1ccc(CNc2nc(-c3cccs3)nc3ccc(I)cc23)cc1; 1.48
COc1ccccc1CNCCCN1C(=O)c2ccc3c4c(ccc(c24)C1=O)C(=O)N(CCCNCCCN)C3=O; 0.15

Next item in the queue.
Prompt line: Fill in: log10 of TGI of `CC(C)NC(=O)OCCN=C1c2ccccc2CCc2ccccc21` is ___
Response line: 1.77

----------
system: OVCAR-3 ovarian; experiment: NCI tumour cell line growth inhibition, 48 h
compounds and their reported TGI

Check out these entries, answers already filled in.
O=C(NCCO)Nc1c(C(F)(F)F)cc(-c2ccccc2)[nH]c1=O; > 100 µM
CCOC(=O)NC(NC(C)CC)(C(F)(F)F)C(F)(F)F (stereo not drawn); > 100 µM

// below: TGI requested for another compound
Prompt line: Fill in the blank: the reported TGI of `CC(C)OP(=O)(OC(C)C)C(=Nc1ccccc1)NNc1ccc([N+](=O)[O-])cc1` is ____.
Response line: > 100 µM

----------
test system: OVCAR-5 ovarian; test: NCI tumour cell line growth inhibition, 48 h
Please mark yes (1) if the recorded TGI is equal to or greater than 30 µM, and no (0) if it falls below.

Solved cases (4 shown):
NS(=O)(=O)c1ccc(CNc2nc(-c3cccs3)nc3ccc(I)cc23)cc1; yes (1)
CN(C)CCNC(=O)c1cccc2[nH]c(-c3ccccc3)nc12; yes (1)
c1ccc(/N=N/Nc2ccc(-c3nc4ccccc4[nH]3)cc2)nc1; yes (1)
COc1cc2nc(Nc3cccc(F)c3)nc(Nc3cc(C)[nH]n3)c2cc1OC; no (0)

Prompt line: Can `O=[N+]([O-])c1cc(-[n+]2cc([O-])on2)ccc1F` be said to have TGI at or above 30 µM?
Response line: yes (1)
